# key: entry, value: IC50
# Test system: WT cell line SK-BR-3
# experiment-notes: Phospho-AKT (Ser473) Inhibition Assay (HTRF), SK-BR-3
# Format: cell-based
# assay-context: Homo sapiens; SK-BR-3, 1 hour treatment; read-out: p-AKT Inhibition assay (S473) IC50 SK-BR-3

Previously resolved entries follow.
Cc1cc(C(C)Nc2ccccc2C(=O)O)c2cc(-c3ccc(C(F)(F)F)nc3)n(C)c(=O)c2c1 (centres unmarked) [Example 86]    > 10 µM
Cc1cc(C(C)Nc2ccccc2C(=O)O)c2cc(-c3cc(F)cc(F)c3)n(C)c(=O)c2c1 (centres unmarked) [Example 10]    2.73 µM
Cc1cc(C(C)Nc2c(C(=O)O)nn3c2CCC3)c2cc(-c3ccccc3)n(C)c(=O)c2c1 (centres unmarked) [Example 83]    > 10 µM
Cc1cc(C(C)Nc2ccccc2C(=O)O)c2cc(-c3cccnc3)n(C)c(=O)c2c1 (centres unmarked) [Example 37]    > 10 µM
CC#Cc1cc2c(C(C)Nc3ccccc3C(=O)O)cc(C)cc2c(=O)n1C (centres unmarked) [Example 27]    > 10 µM

Measured IC50, Cc1cc([C@@H](C)Nc2ccccc2C(=O)O)c2cc(-c3ccc(F)cc3)n(C)c(=O)c2c1 [Example 34] : > 10 µM

Measured IC50, Cc1cc(C(C)Nc2ccccc2C(=O)O)c2cc(NC(=O)c3ccccc3)n(C)c(=O)c2c1 (centres unmarked) [Example 24] : > 10 µM

Measured IC50, Cc1cc(C(C)Nc2ccccc2C(=O)O)c2cc(-c3cnc(O)nc3)n(C)c(=O)c2c1 (centres unmarked) [Example 85] : > 10 µM
